- System: PXR:RXRa (NR concentration 270 nM, RXRa partner concentration 90 nM)
- Assay Text: PBM binding z-score (relative to random genomic background probes); higher = stronger binding; sequences stand for … in GC…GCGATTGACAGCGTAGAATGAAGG
Think of 2 as a floor: if PBM binding z-score stands on it or above, it is true (1); beneath it, false (0).

Chain | Discrete Label
CAAGCTAGGTCACAGAGGTCAAAGTCCGTGCGTA | true (1)
CCTACTGGGCCACGAAAGGTCATTGTTTCAGTGA | true (1)
AGAACGAGGGCACGCTGAGTTGATAGCGGAGTAG | false (0)
CGTCCAAGGTCAGCAGGTCTGTGAAAGCGACGTG | true (1)
CAAACTCGGTCACCGGAAGGTCAAAGTCCGCATG | true (1)
TTGCCTAGGTCATTCAGGGGCCAGTATAGAAAGC | true (1)
ATCGAAAGGTCGTGCGGTGAGTATACAGAAAGGC | true (1)
CCTCTTAGTTGACCATAAGGGCAACCGAAGCTCG | false (0)
CCTAGTTGGTCAGGAGGTAACACACCGGATATGA | false (0)
TCGAGAAGGTTAGTCGGGGCATTCAGCCAACATA | false (0)
CGTCCAAGGTCATAGGAGGTCAGTGGAGACAGAT | true (1)

====

- System: LXRa homodimer (NR concentration 270 nM)
- Assay Text: PBM binding z-score (relative to random genomic background probes); higher = stronger binding; sequences stand for … in GC…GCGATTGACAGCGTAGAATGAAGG

Chain | PBM binding z-score
TCTCGGAGGACACGAAGGTCAGAGCCTTCCAGAG | -0.0178
ATCTGTAGGTTAGCTGGGGTCATTCAGACTAGGC | 3.25
ATCTCTAGGCAAAGATAGTTCAGTGAATGCAAAT | 0.124
CGACCAAGGTCAAGGTCAGTGAAAGAGACTCGAA | 0.72
ATCTCTAGGTAAAGATTGTTCAGTGAATGCAAAT | 0.091
TCGAGTAGGTTACCAATCGGGCATTCAGCTTTCT | -0.836
AGTCAGAGTTCAGGACGAGGTAACGTAAAGCACG | 0.881
CAAACTGGGTCACCGGAAGGTCAAAGTCCGCATG | 3.33
CGTCCAAAGTCAGAGAGGTCAGTGAATGCCGAGT | 1.25
ATCTCTAGGTAAAGATAGTTCAGCGAATGCAAAT | 0.481
ACTTTTAGTTGACTTAGGGCAACCGATACGACGC | 0.546
AGAATGAGGCTATACGTAGATCAGGGAAGAAAGT | -0.213
GCAGACAGGTGAAACGCAGGTAACTAAGGGTGGC | -0.755
ATATGTAGGTTAACGGTCATTCAGGTTGGTTCGC | 2.98
CCTTACGGGTCACTCCAGGTTAAAGCATCGGAGT | 2.58
CTCGAAAGGTCGGTTGAGTTGAGTATACGGATAA | 0.18
TCATATAGGTAAAGGTGAAAGTTGAACGATATGA | 0.158
CCTATTAGTTGACCATAAGGGCAAGCGAAGCTCG | 0.254
TCTTGTAGATCAAGCAGGTTCAGAAAGCCTGAGT | -0.177
ATTATTAGTTGACTTAGGGCAACCGATACGACGC | 1.16
GGGACTGGGGCAAAGCAGGTTACCATAAGGTTGG | 0.405
TCTTGTGGATCAACAGGAGGTTAAGAAAGATCGA | -0.115
CCTACTGGGCCATGCAGAGGTCATTGATCATATG | 4.68
CCTATTACTTGACCATAAGGGCAACCGAAGCTCG | 0.834
CGAACGAAGGCATGAGTTGATAGCAAATGCCGAT | -0.489
TATACAGGGTAAAAGGCCAGAGTACGAATGTCGA | 0.094
ATGTCTAGGTAACCAAGTTCAGTGAATGCCGAAC | 0.547
CCTCGGAGGACAACAGGGGGTCAGAGCTGCCAGA | 0.582
CTCGAAGGGTCGGTTGAGGTGAGTATACGGATAA | -0.0739
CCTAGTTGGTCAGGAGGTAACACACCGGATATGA | 0.325
TCATATAGGTAAAAGGTTAAAGTCGGTGTGGTAA | 1.29
TCTTGTAGGTCAACAGGAGGTTAAGAAAGATCGA | 1.77
GCGACTGGGGCATCACCAGGTTACCATAACTTAA | -0.0644
AAACCAAGGTGATCGTGAGGTCGTTGATACTAAC | 0.284
AGTTACGGGTCAACGAGGTTATAGCACGCGTATA | 0.781
TAGACAGGGTCAAAGGCCAGAGTACGAATGTCGA | -0.0175
GTACCAAGGTGAATAGCTCGTTGATGAGTAGGCG | -0.285
CCTATTAGTTGACCATACGGGCAACCGAAGCTCG | 0.419
GGAACGAGGGCAAGTTGATAACAGAGTTTGATGG | -0.071
CCTACTGGGCCATTCTGAGGTCATTGATCATATG | 4.95
CAGCCTAGGGCAGGGCCAGTATAGGAGGAACGTT | -0.921
GCTGCTAGGTCAAGTTGGTCAGCTAACGGGTACG | 0.651
ATCTCTAGCTAAAGATAGTTCAGTGAATGCAAAT | 0.164
CAAACTAGGTCTCCGGAAGGTCAAAGTCCGCATG | 2.79
ATCCCTAGGTAAGACTCAGTTCAGTGAAGAACGC | 0.479
GGAACGAGTGCAAGTTGATAGCAGAGTTTGATGG | -0.428
TCATAGAGGTAAATGCTAGGTGAAAGTCCGATCT | -0.125
AGAATGAGGTTAAGATCTGGGAAACAGAATACAT | -0.135
CCTTACGGGTCACTCCAGGTTATTGCATCGGAGT | 2.75
ATATGTAGGCTAAGGGTCATTCAGGTTGGTTCGC | 1.84
AGAATGAGGTTATACGTAGATCAGGGAGGAAAGT | 0.0751

====

# PBM binding z-score per record follows
- Test system: PPARg DBDmut:RXRa IVT, anti-PPARg (DBD mutation: PPARg1 K132A/R137A, NR concentration 270 nM, RXRa partner concentration 90 nM)
- Assay Text: PBM binding z-score (relative to random genomic background probes); higher = stronger binding; sequences stand for … in GC…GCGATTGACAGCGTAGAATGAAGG

Chain | PBM binding z-score
ATCTCTAGGTAACGTTCAGTGAAAGATCGATAGA | 1.78
CGAACTAGGTCAGAACACGACAGTGAAGGATGAT | 1.44
CCTAGCAGGCCAGGGACACTCAAGCATTTCGCTT | -0.983
TCTTGTAGAACAATAGAGGTTAAGAAAGTGCGCT | 0.641
ACCAGTTGGTCAGCTGAGGTCACACACAATTCGG | 0.45
GCTAGCAGGCTATTTGGGTCACTCAATGACGGGC | -0.208
GCTCGGAGGACAAGGTTAGAGCTTTGTCCGTAGA | -1.46
ACTAGCAGGCCAAGCTTGGGTCACTCAAACAAAG | -0.775
CCTTACGGGTCATGGTTATAGCACGGGTGGTACG | 0.473
ATATGTAGGGTAAGGGTCATTCAGGTTGGTTCGC | 5.99
AATACAGGGTCATCGTGGGCCAGAGTACGCACAG | 0.764
ACTAGCAGGCCAAGTTTGGGTCACTCAAACAAAG | -0.627
CTCAAAAGGTCGGTTGAGGTGAGTATACGGATAA | 0.328
CCTTACGGGTCACTCACAGGTTATAGCATTTGGA | 0.37
AGTCAAAGTTCAACTAGGTAACGTAAGATATGCT | 2.11
CCAGACATGTGAGAAGGTAACTCAGCCTCGATTA | 0.124
AGAATGAGGTTACCAAAGATCCGGGAAACGCTTG | 0.821
TCTCGGAGGACACGGAGGTCAGAGCTTTCCAGAG | -0.769
TCTATTAGTTGATTAGGGCAATCGAAACAGCGGA | 0.785
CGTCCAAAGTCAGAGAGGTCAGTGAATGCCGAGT | -0.212
ATCACTAGGTAACAAGTTCAGTGAAAGAGAGGAC | 1.27
TCATATTGGTAATACAGGTGAAAGTCGGCATCTA | 0.751
CAAACTATGTCACGAAAGGTCAAAGTCGAATGAC | 3
ACAGACAGGTGAGGGAAGGTAACTCAGCTGGACG | 0.431
ATATGTAGGTTAAGGGTCATTCACGTTGGTTCGC | 3.39
AGAACCAGGGCACGCTGAGTTGATAGCAGAGTAG | 0.0191
CCTTACGGGTCACTGACAGGTTATAGCTTTTGGA | -0.188
AGAACGATGGCAATGAGTTGATAGCACGGGTGGC | 0.0197
ATATGTAGGTTATCGGGCCATTCAGTTTGCGCAT | 2.32
GCTAGCAGGCCATTTGGGTCACACAATGACGGGC | -0.238
GCATATAGGTAATAAAAGGTGAAAGTCCGATTGT | 0.83
CCTTACGGGTCACTGCAGGTTATAGCATCGGAGT | -0.541
CGAACTAGGTCATTGACAGGAAAGTGAATAGTAA | 2.11
CGTCCAAGGTCAGAGAGGTCAGCGAATGCCGAGT | -0.551
ACAGATAGGTGATGAAGGTAACTCAGGCTATCAT | 0.38
CCTATTAGTTGACCATAAAGGCAACCGAAGCTCG | 0.612
CAAACTAGGTCACCGGAGGGTCAAAGTCCGCATG | 2.75
ATCGAAAGGTCGATGAGGTGAGTATACACCGTTT | 1.01
ACTAGCAGGCCAAGGGTCACTCGAGATTAGTCCG | -0.0207
ATCTCTAGGTAAGACTCAGTTCAGTGATGAACGC | 1.15
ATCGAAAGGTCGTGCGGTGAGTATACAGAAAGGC | 0.719
CGAACTAGGTCCAGGACAGTGAATCTCCGCACGC | -0.489
CCTAGCAGGCCAATATGGGTCACTCAAGGCTTGA | -0.447
ACTTACGGGTCAACGCGGTTATAGCACGCGTATA | 1.26
AGCATGAGGTTATTAAGATCAGGGAATTGCGGTC | 0.518
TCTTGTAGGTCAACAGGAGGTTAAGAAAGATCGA | 2.81
TCTTGTAGATCAAAGGTTAAGAAAGCCGAAGCCT | 0.0229
AGAACGAGGGCACGCTGAGTTGATAACAGAGTAG | 0.246
GGTCGGAGGACAAGGTCAGAGCTTTGTCCGTAGA | -0.429
ACTAGCAGGCCAAGTTTGGCTCACTCAAACAAAG | -0.751
ACTTACTGGTCAACGAGGTTATAGCACGCGTATA | 1.75
